Test: Cmax in patient with bacterial infection at 1 gm[…], iv administered at 30 mins regimen for 24 hrs by LC/MS/MS analysis
Type: ADME, organism-based
Parameters: route intravenous
Conditions: human, in vivo
Test Readout: Cmax (µg/mL)
# output: bare number, implied unit µg/mL

Recall and state the measured Cmax for C[C@@H](O)[C@H]1C(=O)N2C(C(=O)O)=C(S[C@@H]3CN[C@H](C(=O)Nc4cccc(C(=O)O)c4)C3)[C@H](C)[C@H]12 . 115

----------
Assay: Cmax in patient with bacterial infection at 1 gm[…], sc administered at 30 mins regimen for 24 hrs by LC/MS/MS analysis
Format: ADME, organism-based
Design: route subcutaneous
Conditions: human, in vivo
Test Readout: Cmax (ng/mL)
Numbers only here, please. The scale is ng/mL.

Output Cmax of C[C@@H](O)[C@H]1C(=O)N2C(C(=O)O)=C(S[C@@H]3CN[C@H](C(=O)Nc4cccc(C(=O)O)c4)C3)[C@H](C)[C@H]12 43000

----------
Test: Clearance in patient with bacterial infection at 1 gm[…], iv administered at 30 mins regimen for 24 hrs by LC/MS/MS analysis
Type: ADME, organism-based
Conditions: human, in vivo
Test Readout: clearance (mL/min)
Express the result in mL/min but write the number alone.

Name the recorded clearance of the compound listed here: C[C@@H](O)[C@H]1C(=O)N2C(C(=O)O)=C(S[C@@H]3CN[C@H](C(=O)Nc4cccc(C(=O)O)c4)C3)[C@H](C)[C@H]12 [ERTAPENEM] 63.3

----------
Test: Half life in patient with bacterial infection at […], sc administered at 30 mins regimen for 24 hrs by LC/MS/MS analysis
Assay type: ADME, organism-based
Details: human, in vivo
Test Readout: half-life (h)
Record the value in h, omitting the unit from your answer.

Return half-life for the following compound: C[C@@H](O)[C@H]1C(=O)N2C(C(=O)O)=C(S[C@@H]3CN[C@H](C(=O)Nc4cccc(C(=O)O)c4)C3)[C@H](C)[C@H]12 5.4
